system: T. cruzi-infected H9C2 cardiomyocytes, high-content imaging; experiment: intracellular T. cruzi amastigote inhibition, imaging, H9C2 host cardiomyocytes, host toxicity (AID 1159565); details: measured here: amastigotes per cell;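 also: infected cells incubated 72 h after plating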
Give measured IC50 for each item. Keep answers brief.
One number for each entry, in µM.

Example molecules with recorded IC50:
Query: IC50; subject: COc1ccc(C(=O)Nc2cc(C(F)(F)F)ccc2N2CCOCC2)c(OC)c1
0.32

Query: IC50; subject: O=C(Nc1nc(-c2ccccn2)cs1)c1ccc(S(=O)(=O)N2CCCCC2)cc1
0.4

Query: IC50; subject: CNS(=O)(=O)c1ccccc1Nc1nc(Nc2cc(C)nn2C)ncc1Cl
0.5

Query: IC50; subject: O=C(Nc1nc(-c2ccccn2)cs1)c1ccccc1-n1cnnn1
2

Query: IC50; subject: COc1ccc(OC)c2c(=O)c(Cc3ccccc3)c(C)[nH]c12
0.13

Quick batch: IC50 for everything below.
1. CC(Cn1ccnc1)NC(=O)C=Cc1ccc(Cl)cc1 (stereo not drawn)
2. CCCn1c(NC(=O)CCn2cc(Br)cn2)nc2ccccc21
3. CCOc1cc(NCCCN2CCN(C)CC2)c2ncccc2c1
4. CC(=O)Nc1nc(-c2cc(C)ccc2C)c(C)s1

1. 0.63
2. 2.5
3. 1
4. 0.16

* * *

system: T. cruzi-infected H9C2 cardiomyocytes, high-content imaging; assay: intracellular T. cruzi amastigote inhibition, imaging, H9C2 host cardiomyocytes, host toxicity (AID 1159565); conditions: measured here: amastigotes per cell;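 also: infected cells incubated 72 h after plating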
parameter: IC50 (µM)
Answers are plain numbers, in µM.

Query: IC50; subject: O=C(CN(Cc1ccccn1)Cc1ccccn1)NC1Cc2ccccc2C1
6.3

Query: IC50; subject: COc1ccc(C2CC(c3ccccc3Cl)=NN2C(=O)CNC(=O)C2CCC2)cc1 (stereo not given)
1

Quick batch: IC50 for everything below.
1. CC(C)c1sc(Cl)nc1C(=O)NCCc1nc(C(=O)Nc2ccc3c(c2)OCO3)cs1
2. COCc1cnc2c(c1SCc1c(F)cccc1Cl)c(=O)n(C)c(=O)n2C

0.63
2.5

* * *

Give measured pIC50 for each item. Keep answers brief.
tested on: T. cruzi-infected H9C2 cardiomyocytes, high-content imaging; experiment: intracellular T. cruzi amastigote inhibition, imaging, H9C2 host cardiomyocytes, host toxicity (AID 1159565); conditions: measured here: amastigotes per cell;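 also: infected cells incubated 72 h after plating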
Answers are plain numbers, as −log10 of the molar value.

Example compounds with recorded pIC50:
Query: pIC50; subject: O=C1OCc2ccc(Nc3nccc(-c4cnn5ncccc45)n3)cc21
7.49

Query: pIC50; subject: COc1ccc(CN(C)Cc2ccncc2)cc1-c1ccc(S(=O)(=O)NC2CCC2)s1
6.30

Query: pIC50; subject: CC(C)Nc1nccc(-c2c(-c3ccc(F)cc3)ncn2C2CCOCC2)n1
6.70

Quick batch: pIC50 for everything below.
1. CC(C)(C)C(Cn1ccnc1)NC(=O)c1ccc2nc(C3CC3)oc2c1 (stereo not given)
2. CNc1c(C(N)=O)c(-c2ccc3scnc3c2)nn1CC(F)(F)F
3. CC(=Cc1ccccc1)CN1CCC(=O)N(Cc2cccnc2)CC1
4. CCOc1ccc2nc(NC(=O)c3ccc([N+](=O)[O-])s3)sc2c1
5. Cc1ccc(S(C)(=O)=O)cc1Nc1nccc(-c2sc(N)nc2-c2ccccc2)n1
6. Cc1[nH]nc(C(F)(F)F)c1NC(=O)CCn1cc(Cl)c([N+](=O)[O-])n1
7. COc1ccc(-c2cnc(NC(=O)c3cc(-c4ccccn4)n[nH]3)n2C)cc1

1: 7.10; 2: 6.80; 3: 6.30; 4: 6.00; 5: 7.10; 6: 5.20; 7: 5.40

* * *

system: T. cruzi-infected H9C2 cardiomyocytes, high-content imaging; assay: intracellular T. cruzi amastigote inhibition, imaging, H9C2 host cardiomyocytes, host toxicity (AID 1159565); settings: measured here: H9C2 host cell toxicity;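 also: infected cells incubated 72 h after plating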
Give measured pIC50 for each item. Keep answers brief.
Numbers only, as −log10 of the molar value.

Query: pIC50; subject: O=c1cc(CSc2ccc(Cl)cc2)nc(-c2ccccn2)[nH]1
5.49

Quick batch: pIC50 for everything below.
1. CC(C)S(=O)(=O)c1ccc(-c2cnc(N)c3cc(-c4ccnc(N)n4)ccc23)cc1
2. NC(=O)c1cc(F)ccc1Nc1nc(NC2CCC(O)CC2)ncc1Br (stereo unspecified)
3. CC1CCCN(S(=O)(=O)c2ccc(C(=O)Nc3nc(-c4ccccn4)cs3)cc2)C1 (stereo unspecified)
4. Nc1ncnc2c1ncn2[C@@H]1O[C@H](CO)C[C@H]1O

[6.30, 6.30, 5.49, 5.30]

Quick batch: pIC50 for everything below.
1. CC(C)n1c(-c2nonc2N)nc2cccc(OCCN3CCCC3)c21
2. Clc1cc(Br)ccc1OCCCCn1ccnc1

[4.49, 4.60]

* * *

test system: T. cruzi-infected H9C2 cardiomyocytes, high-content imaging; assay: intracellular T. cruzi amastigote inhibition, imaging, H9C2 host cardiomyocytes, host toxicity (AID 1159565); details: measured here: amastigotes per cell;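 also: infected cells incubated 72 h after plating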
parameter: pIC50
One number for each entry, as −log10 of the molar value.

Query: pIC50; subject: CN(C)CCOc1ccc(N2CCN(S(=O)(=O)c3ccc(Cl)cc3)CC2)cc1
6.30

Query: pIC50; subject: Cc1c(Nc2cc(C3CC3)[nH]n2)ccc(C#N)c1Cl
4.80

Query: pIC50; subject: CCN(CC)S(=O)(=O)c1ccc(Cn2nc(C(=O)Nc3ccncn3)c3ccccc32)cc1
6.40

Query: pIC50; subject: CCOc1ccc(CN(C)Cc2nc(N)nc(Nc3ccc(C)cc3)n2)cc1
5.30

Query: pIC50; subject: C=CCN(Cc1cccs1)C(=O)CSc1nnc(-c2ccc3c(c2)OCO3)o1
6.30

Query: pIC50; subject: COc1ccc(NS(=O)(=O)c2cc(-c3cc(C)[nH]n3)ccc2C)cc1OC
5.89

Moving on to another compound below.
Query: pIC50; subject: CN(C)Cc1ccc(N2CCC(NS(=O)(=O)c3ccc(Cl)cc3)CC2)cc1
6.60

* * *

Give measured IC50 for each item. Keep answers brief.
system: T. cruzi-infected H9C2 cardiomyocytes, high-content imaging; assay: intracellular T. cruzi amastigote inhibition, imaging, H9C2 host cardiomyocytes, host toxicity (AID 1159565); settings: measured here: H9C2 host cell toxicity;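 also: infected cells incubated 72 h after plating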

Example compounds with recorded IC50:
Query: IC50; subject: OCC1CCCCN1c1cc(-c2ccccn2)nc(Nc2ccccc2)n1 (stereo not given)
500 nM

Query: IC50; subject: Fc1ccc(Nc2nc(-c3ccccn3)cs2)cc1
1000 nM

Query: IC50; subject: CN(C)CCN(C)Cc1ccc(Cl)cc1NS(=O)(=O)c1ccc(Cl)c(Cl)c1
5000 nM

Quick batch: IC50 for everything below.
1. O=C1CN(C(=O)c2cccc(Nc3ncc(-c4ccc5c(c4)OCO5)cn3)c2)CCN1
2. O=C(Nc1cccc(S(=O)(=O)Nc2ccc(Br)cc2)c1)c1ccc([N+](=O)[O-])s1

["63000 nM", "2500 nM"]

* * *

Give measured pIC50 for each item. Keep answers brief.
system: T. cruzi-infected H9C2 cardiomyocytes, high-content imaging; experiment: intracellular T. cruzi amastigote inhibition, imaging, H9C2 host cardiomyocytes, host toxicity (AID 1159565); conditions: measured here: H9C2 host cell toxicity;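 also: infected cells incubated 72 h after plating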
One number for each entry, as −log10 of the molar value.

Query: pIC50; subject: Nc1nc(-c2ccccc2)cc(-c2nc3ncccc3[nH]2)n1
4.89

Query: pIC50; subject: COc1cnc2ccc(=O)n(CCN3CCC(NC(=O)Cc4ccc(Cl)c(Cl)c4)CC3)c2c1
5.20

Query: pIC50; subject: N#Cc1cccc(Nc2nccc(N3CCC(NS(=O)(=O)c4cccc(C#N)c4)CC3)n2)c1
4.49

More entries:
Query: pIC50; subject: CN1C(=O)c2ccccc2Sc2ccc(NC(=O)NCc3ccco3)cc21
4.60

* * *

tested on: T. cruzi-infected H9C2 cardiomyocytes, high-content imaging; assay: intracellular T. cruzi amastigote inhibition, imaging, H9C2 host cardiomyocytes, host toxicity (AID 1159565); conditions: measured here: H9C2 host cell toxicity;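 also: infected cells incubated 72 h after plating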
Give measured pIC50 for each item. Keep answers brief.
One number for each entry, as −log10 of the molar value.

Example compounds with recorded pIC50:
Under T. cruzi-infected H9C2 cardiomyocytes, high-content imaging: pIC50 value of COCCn1c(-c2ccc3c(c2)OCO3)cnc1NCc1ccccc1OC ?
4.40

Under T. cruzi-infected H9C2 cardiomyocytes, high-content imaging: pIC50 value of COc1cc(NC(=O)Nc2cccc(CNC(=O)OC3CCCCC3)c2)ccc1-c1cnco1 ?
4.80

Under T. cruzi-infected H9C2 cardiomyocytes, high-content imaging: pIC50 value of CCc1nn(-c2ncc(F)c(NC(C)C)n2)c(N)c1C1CCCCC1 ?
6.00

Quick batch: pIC50 for everything below.
1. CN(C)Cc1ccc(-c2ccc(S(=O)(=O)NCC3CCCO3)c(F)c2)cc1 (centres undefined)
2. NC(=O)c1ncc(N[C@@H]2CCCNC2)nc1Nc1cccc(Cl)c1
3. O=C(Nc1nc(-c2ccc(F)cc2)cs1)c1ccc([N+](=O)[O-])s1

1. 4.20
2. 5.89
3. 5.40
